# TEST DESCRIPTION: solubility of fulvestrant in solvents
# Type: physicochemical
# CONDITION LABEL: aqueous with cosolvent or surfactant or cyclodextrin, in 10% Ethanol/0.9% Benzylalcohol/30% PEG 400/20 mg per ml Lecithin, in Water
MEASURED METRIC: solubility (µg/mL)
Quick reminder: number only, in µg/mL, skip the unit.

Request the reported solubility associated with C[C@]12CC[C@@H]3c4ccc(O)cc4C[C@@H](CCCCCCCCC[S+]([O-])CCCC(F)(F)C(F)(F)F)[C@H]3[C@@H]1CC[C@@H]2O (stereo partly shown) [fulvestrant]
5000

* * *

# TEST DESCRIPTION: solubility of fulvestrant in solvents
# Type: physicochemical
# CONDITION LABEL: 50% dihydrolipoic acid/50% lipoic acid, organic solvent or mixture, in 50% dihydrolipoic acid/50% lipoic acid
MEASURED METRIC: solubility

Request the reported solubility associated with C[C@]12CC[C@@H]3c4ccc(O)cc4C[C@@H](CCCCCCCCC[S+]([O-])CCCC(F)(F)C(F)(F)F)[C@H]3[C@@H]1CC[C@@H]2O (stereo partly shown)
> 350 mg/mL

* * *

# TEST DESCRIPTION: solubility of fulvestrant in solvents
# Type: physicochemical
# CONDITION LABEL: 20 mg/ml Lutrol in PEG 400 (2% Lutrol in PEG 400), organic solvent or mixture, in 20 mg/ml of Lutrol in PEG 400 (2% Lutrol in PEG 400)
MEASURED METRIC: solubility (mg/mL)
Quick reminder: number only, in mg/mL, skip the unit.

Request the reported solubility associated with C[C@]12CC[C@@H]3c4ccc(O)cc4C[C@@H](CCCCCCCCC[S+]([O-])CCCC(F)(F)C(F)(F)F)[C@H]3[C@@H]1CC[C@@H]2O (stereo partly shown)
66.7

* * *

# TEST DESCRIPTION: solubility of fulvestrant in solvents
# Type: physicochemical
# CONDITION LABEL: glycofurol, organic solvent or mixture, in Glycofurol
MEASURED METRIC: solubility (mg/mL)
Quick reminder: number only, in mg/mL, skip the unit.

Request the reported solubility associated with C[C@]12CC[C@@H]3c4ccc(O)cc4C[C@@H](CCCCCCCCC[S+]([O-])CCCC(F)(F)C(F)(F)F)[C@H]3[C@@H]1CC[C@@H]2O (stereo partly shown) [fulvestrant]
400

* * *

# TEST DESCRIPTION: solubility of fulvestrant in solvents
# Assay type: physicochemical
# CONDITION LABEL: 10% ethanol/0.9% benzyl alcohol/30% PEG 400 in water (v/v), aqueous with cosolvent or surfactant or cyclodextrin, in 10% Ethanol/0.9% Benzylalcohol/30% PEG 400 in Water (v/v)
MEASURED METRIC: solubility (µg/mL)
Quick reminder: number only, in µg/mL, skip the unit.

Request the reported solubility associated with C[C@]12CC[C@@H]3c4ccc(O)cc4C[C@@H](CCCCCCCCC[S+]([O-])CCCC(F)(F)C(F)(F)F)[C@H]3[C@@H]1CC[C@@H]2O (stereo partly shown)
10000

* * *

# TEST DESCRIPTION: solubility of fulvestrant in solvents
# Assay type: physicochemical
# CONDITION LABEL: 1,4-dioxane, organic solvent or mixture, in 1,4 Dioxan
MEASURED METRIC: solubility (mg/mL)
Quick reminder: number only, in mg/mL, skip the unit.

Request the reported solubility associated with C[C@]12CC[C@@H]3c4ccc(O)cc4C[C@@H](CCCCCCCCC[S+]([O-])CCCC(F)(F)C(F)(F)F)[C@H]3[C@@H]1CC[C@@H]2O (stereo partly shown)
833

* * *

# TEST DESCRIPTION: solubility of fulvestrant in solvents
# Assay type: physicochemical
# CONDITION LABEL: propylene glycol (neat), organic solvent or mixture, in Propylene Glycol (neat)
MEASURED METRIC: solubility (µg/mL)
Quick reminder: number only, in µg/mL, skip the unit.

Request the reported solubility associated with C[C@]12CC[C@@H]3c4ccc(O)cc4C[C@@H](CCCCCCCCC[S+]([O-])CCCC(F)(F)C(F)(F)F)[C@H]3[C@@H]1CC[C@@H]2O (stereo partly shown) [fulvestrant]
4000

* * *

# TEST DESCRIPTION: solubility of fulvestrant in solvents
# Format: physicochemical
# CONDITION LABEL: PEG 400 + propylene glycol (1:1), organic solvent or mixture, in PEG 400 + PG (1:1)
MEASURED METRIC: solubility (mg/mL)
Quick reminder: number only, in mg/mL, skip the unit.

Request the reported solubility associated with C[C@]12CC[C@@H]3c4ccc(O)cc4C[C@@H](CCCCCCCCC[S+]([O-])CCCC(F)(F)C(F)(F)F)[C@H]3[C@@H]1CC[C@@H]2O (stereo partly shown) [fulvestrant]
50

* * *

# TEST DESCRIPTION: solubility of fulvestrant in solvents
# Type: physicochemical
# CONDITION LABEL: Lutrol/PEG400/propylene glycol blends, organic solvent or mixture, in the Lutrol/PEG400/propylene glycol blends
MEASURED METRIC: solubility

Request the reported solubility associated with C[C@]12CC[C@@H]3c4ccc(O)cc4C[C@@H](CCCCCCCCC[S+]([O-])CCCC(F)(F)C(F)(F)F)[C@H]3[C@@H]1CC[C@@H]2O (stereo partly shown) [fulvestrant]
50 mg/mL

* * *

# TEST DESCRIPTION: solubility of fulvestrant in solvents
# Assay type: physicochemical
# CONDITION LABEL: dihydrolipoic acid, organic solvent or mixture, in Dihydrolipoic acid
MEASURED METRIC: solubility

Request the reported solubility associated with C[C@]12CC[C@@H]3c4ccc(O)cc4C[C@@H](CCCCCCCCC[S+]([O-])CCCC(F)(F)C(F)(F)F)[C@H]3[C@@H]1CC[C@@H]2O (stereo partly shown)
> 450 mg/mL

* * *

# TEST DESCRIPTION: solubility of fulvestrant in solvents
# Format: physicochemical
# CONDITION LABEL: organic solvent or mixture, in 10% Ethanol/0.9% Benzylalcohol in PEG 400 (V/V, QS with PEG 400)
MEASURED METRIC: solubility (µg/mL)
Quick reminder: number only, in µg/mL, skip the unit.

Request the reported solubility associated with C[C@]12CC[C@@H]3c4ccc(O)cc4C[C@@H](CCCCCCCCC[S+]([O-])CCCC(F)(F)C(F)(F)F)[C@H]3[C@@H]1CC[C@@H]2O (stereo partly shown)
10000

* * *

# TEST DESCRIPTION: solubility of fulvestrant in solvents
# Type: physicochemical
# CONDITION LABEL: ethyl acetate, organic solvent or mixture, in Ethyl acetate
MEASURED METRIC: solubility (µg/mL)
Quick reminder: number only, in µg/mL, skip the unit.

Request the reported solubility associated with C[C@]12CC[C@@H]3c4ccc(O)cc4C[C@@H](CCCCCCCCC[S+]([O-])CCCC(F)(F)C(F)(F)F)[C@H]3[C@@H]1CC[C@@H]2O (stereo partly shown)
7800

* * *

# TEST DESCRIPTION: solubility of fulvestrant in solvents
# Format: physicochemical
# CONDITION LABEL: organic solvent or mixture, in 0.8 ml of (20 mg/ml of Lutrol in PEG 400) + 0.2 ml of Propylene Glycol
MEASURED METRIC: solubility (mg/mL)
Quick reminder: number only, in mg/mL, skip the unit.

Request the reported solubility associated with C[C@]12CC[C@@H]3c4ccc(O)cc4C[C@@H](CCCCCCCCC[S+]([O-])CCCC(F)(F)C(F)(F)F)[C@H]3[C@@H]1CC[C@@H]2O (stereo partly shown)
50

* * *

# TEST DESCRIPTION: solubility of fulvestrant in solvents
# Format: physicochemical
# CONDITION LABEL: t-butanol, organic solvent or mixture, in T-butanol
MEASURED METRIC: solubility (mg/mL)
Quick reminder: number only, in mg/mL, skip the unit.

Request the reported solubility associated with C[C@]12CC[C@@H]3c4ccc(O)cc4C[C@@H](CCCCCCCCC[S+]([O-])CCCC(F)(F)C(F)(F)F)[C@H]3[C@@H]1CC[C@@H]2O (stereo partly shown)
194

* * *

# TEST DESCRIPTION: solubility of fulvestrant in solvents
# Assay type: physicochemical
# CONDITION LABEL: 20-50 mg/ml Lutrol in dihydrolipoic acid, organic solvent or mixture, in 20-50 mg/ml Lutrol in dihydrolipoic acid
MEASURED METRIC: solubility

Request the reported solubility associated with C[C@]12CC[C@@H]3c4ccc(O)cc4C[C@@H](CCCCCCCCC[S+]([O-])CCCC(F)(F)C(F)(F)F)[C@H]3[C@@H]1CC[C@@H]2O (stereo partly shown) [fulvestrant]
> 350 mg/mL

* * *

# TEST DESCRIPTION: solubility of fulvestrant in solvents
# Assay type: physicochemical
# CONDITION LABEL: 20 mg/ml Lutrol in propylene glycol, organic solvent or mixture, in 20 mg/ml of Lutrol in PG
MEASURED METRIC: solubility
Please state the value followed by its unit.

Request the reported solubility associated with C[C@]12CC[C@@H]3c4ccc(O)cc4C[C@@H](CCCCCCCCC[S+]([O-])CCCC(F)(F)C(F)(F)F)[C@H]3[C@@H]1CC[C@@H]2O (stereo partly shown)
22.7 mg/mL
